# test_system: human ENT1 (Homo sapiens, UniProt Q99808)
# Construct: JAR cells expressing ENT1 were purchased from ATCC; host or cells: JAR cells
# Sequence (Q99808 whole entry): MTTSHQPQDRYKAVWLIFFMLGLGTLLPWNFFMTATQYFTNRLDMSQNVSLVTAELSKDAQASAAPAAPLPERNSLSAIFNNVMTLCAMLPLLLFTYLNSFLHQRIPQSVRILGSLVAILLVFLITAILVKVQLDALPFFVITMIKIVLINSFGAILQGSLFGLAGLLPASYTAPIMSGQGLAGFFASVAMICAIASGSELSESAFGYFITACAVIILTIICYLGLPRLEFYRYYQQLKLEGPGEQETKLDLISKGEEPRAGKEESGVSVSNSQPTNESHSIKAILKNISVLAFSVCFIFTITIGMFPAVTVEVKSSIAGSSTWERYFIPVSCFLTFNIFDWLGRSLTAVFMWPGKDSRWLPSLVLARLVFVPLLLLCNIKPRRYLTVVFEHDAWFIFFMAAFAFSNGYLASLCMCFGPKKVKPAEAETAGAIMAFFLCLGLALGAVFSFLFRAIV
# experiment_summary: ENT1 binding assay (competition with Sahenta-DY647 on JAR cells)
# measurement_context: competition with SAHENTA-DY647 binding; IC50 categorized; read-out: Binding Assay IC50
measure: IC50

Below, each entry is followed by its recorded IC50 result.
{"columns": ["compound", "test_system", "val"],
 "data": [
  ["C[C@H]1O[C@@H](n2c(N[C@H]3CC[C@@](C)(O)CC3)nc3c(OCc4ccc(OC(F)F)cc4)ncnc32)[C@H](O)[C@@H]1O [Compound 122]", "human ENT1 (Homo sapiens, UniProt Q99808)", "1 to 20 nM"],
  ["COc1ccccc1COc1ncnc2c1ncn2[C@@H]1O[C@H](C)[C@@H](O)[C@H]1O [Compound 325]", "human ENT1 (Homo sapiens, UniProt Q99808)", "> 500 nM"],
  ["C[C@H]1O[C@@H](n2cnc3c(N4CCc5cc([N+](=O)[O-])ccc5C4)ncnc32)[C@H](O)[C@@H]1O [Compound 196]", "human ENT1 (Homo sapiens, UniProt Q99808)", "20 to 500 nM"],
  ["COCCCNc1nc2c(N3CCc4ccc([N+](=O)[O-])cc4C3)ncnc2n1[C@@H]1O[C@H](C)[C@@H](O)[C@H]1O [Compound 146]", "human ENT1 (Homo sapiens, UniProt Q99808)", "1 to 20 nM"],
  ["C[C@H]1O[C@@H](n2cnc3c(N4CCN(c5ccc([N+](=O)[O-])cc5)CC4)ncnc32)[C@H](O)[C@@H]1O [Compound 299]", "human ENT1 (Homo sapiens, UniProt Q99808)", "> 500 nM"]
]}

C[C@H]1O[C@@H](n2cnc3c(OCCc4ccc(C#N)cc4)ncnc32)[C@H](O)[C@@H]1O [Compound 249] has a reported IC50 of > 500 nM

C[C@H]1O[C@@H](n2cnc3c(OCCc4ccc(C#N)cn4)ncnc32)[C@H](O)[C@@H]1O [Compound 402] has a reported IC50 of > 500 nM

* * *

# test_system: human ENT1 (Homo sapiens, UniProt Q99808)
# Construct: JAR cells expressing ENT1 were purchased from ATCC; host or cells: JAR cells
# experiment_summary: ENT1 binding assay (competition with Sahenta-DY647 on JAR cells)
# measurement_context: competition with SAHENTA-DY647 binding; IC50 categorized; read-out: Binding Assay IC50
measure: IC50

{"columns": ["compound", "IC50"],
 "data": [
  ["C[C@H]1O[C@@H](n2c(NCC3CCOC3)nc3c(OCc4ccc(Cl)cc4)ncnc32)[C@H](O)[C@@H]1O (stereo partly drawn)", "20 to 500 nM"],
  ["C[C@H]1O[C@@H](n2c(N[C@@H]3CCC(F)(F)C3)nc3c(OCc4ccc([N+](=O)[O-])cc4)ncnc32)[C@H](O)[C@@H]1O", "< 1 nM"],
  ["O=[N+]([O-])c1ccc(COc2ncnc3c2nc(NC2CCCC2)n3[C@@H]2O[C@H](COCCO)[C@@H](O)[C@H]2O)cc1", "20 to 500 nM"],
  ["COc1ccc(COc2ncnc3c2ncn3[C@@H]2O[C@H](C)[C@@H](O)[C@H]2O)cc1", "> 500 nM"],
  ["C[C@H]1O[C@@H](n2cnc3c(C(=O)N(C)Cc4ccc([N+](=O)[O-])cc4)ncnc32)[C@H](O)[C@@H]1O", "> 500 nM"]
]}

C[C@H]1O[C@@H](n2cnc3c(OCc4ccc(-c5cnco5)cc4)ncnc32)[C@H](O)[C@@H]1O has a reported IC50 of > 500 nM

CC1OC(n2c(NC3CCC(C)(O)CC3)nc3c(OCc4ccc([N+](=O)[O-])cc4)ncnc32)C(O)C1O (single isomer, unassigned) [Compound 117] has a reported IC50 of 1 to 20 nM

C[C@H]1O[C@@H](n2cnc3c(OCc4ccc(-c5ccncc5)cc4)ncnc32)[C@H](O)[C@@H]1O has a reported IC50 of > 500 nM
